target: Retinoic acid receptor alpha (Homo sapiens); test: ATG_RARa_TRANS: Attagene TRANS-FACTORIAL HepG2 Assay for human Retinoic Acid Receptor alpha (RARa) (AID 2283005)
Results filed as inconclusive are left out. The source made the active and inactive calls. How the source made its calls: active means hit-call score of the fitted dose curve at least 0.9, where 1 is the maximum; inconclusive means response in the unintended direction; inactive means score below 0.9.
Possible outcomes: True (active), False (inactive)

INSERT INTO measurements (compound, answer_label) VALUES
  ('CCc1cc(C(C)(C)C)c(O)c(C(C)(C)C)c1', 'False'),
  ('C1CCOC1', 'False'),
  ('O=C(O)CNc1ccccc1', 'False'),
  ('C=CC(=O)OCCCC', 'False'),
  ('CCC1CCCCC1', 'False'),
  ('O=C1OC2(c3ccccc31)c1ccc(O)c(Br)c1Oc1c2ccc(O)c1Br', 'False'),
  ('Cc1cc(S(=O)(=O)O)ccc1N=Nc1c(O)ccc2ccccc12', 'False'),
  ('O=C(O)COCC(=O)O', 'False'),
  ('O=C1NC2NC(=O)NC2N1 (stereo not given)', 'False'),
  ('CCCCCCCC(=O)OCCCCCC', 'False'),
  ('O=C1c2ccccc2C(=O)c2c(O)ccc(O)c21', 'False'),
  ('CCc1cc(Cc2cc(CC)cc(C(C)(C)C)c2O)c(O)c(C(C)(C)C)c1', 'True'),
  ('Cc1ccc2c(c1)C(=O)OC2=O', 'False'),
  ('O=C(c1ccccc1)C(O)c1ccccc1 (stereo not given)', 'False'),
  ('C=CC(=O)OCCC#N', 'False');

---

assay: ACEA_ER_AUC_viability: ACEA Biosciences xCELLigence Real-Time Cell Analysis on Estrogen Receptor Agonism for Viability (AID 2283782);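 further: continuous compound exposure with impedance area under curve over 80 h; hit means loss of impedance signal meaning reduced cell growth or viability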
Inconclusive results are not listed. Activity calls are given as the source filed them. How the source made its calls: active means hit-call score of the fitted dose curve at least 0.9, where 1 is the maximum; inconclusive means response in the unintended direction; inactive means score below 0.9.
REPORTED_ENDPOINT: AC50

INSERT INTO measurements (compound, result) VALUES
  ('O=C(O)c1ccc(O)cc1', 'inactive'),
  ('C=CCCCCCCCCCC', 'inactive'),
  ('c1ccc(CN(Cc2ccccc2)Cc2ccccc2)cc1', '89 µM (active)'),
  ('CCOc1ccc(NC(=O)CC(C)=O)cc1', 'inactive'),
  ('N#Cc1cscn1', 'inactive'),
  ('COC(C)(C)CCCC(C)CC=O (stereo unspecified)', '50 µM (active)'),
  ('Oc1ccc2cc(SSc3ccc4cc(O)ccc4c3)ccc2c1', '87.1 µM (active)'),
  ('C=CC(C)C#N (stereo unspecified)', 'inactive'),
  ('CC(=O)NCCO', 'inactive'),
  ('CCN(CCC#N)c1ccc(N=Nc2ccc([N+](=O)[O-])cc2)cc1', 'inactive'),
  ('CC1(C)CCC[C@]2(C)[C@H]3CCO[C@]3(C)CC[C@@H]12', '76.2 µM (active)'),
  ('CCCCCc1ccco1', '35 µM (active)'),
  ('Nc1ccc(NCCO)c([N+](=O)[O-])c1', 'inactive'),
  ('CCCCCCCCCCCCN1CCCCCC1=O', '31.3 µM (active)'),
  ('CCCCCCCCSCCO', '70.5 µM (active)'),
  ('CCCC[P+](CCCC)(CCCC)CCCC', '91.7 µM (active)'),
  ('C=C(C)C(=O)OCCOCCOCCOC(=O)C(=C)C', 'inactive'),
  ('Oc1c(Cl)cc(Cl)c(Cl)c1Cc1c(O)c(Cl)cc(Cl)c1Cl', '5.27 µM (active)'),
  ('CC(C)CCOC(=O)c1ccccc1', 'inactive'),
  ('CCCCN(CCCC)C(=O)N(CCCC)CCCC', '80.4 µM (active)'),
  ('CCCCCCCCCCCCCC(=O)OCC(O)CO (stereo unspecified)', '81.6 µM (active)'),
  ('ON=C1CCCCC1', 'inactive'),
  ('COS(=O)(=O)O', 'inactive'),
  ('Cc1ccc(S(=O)(=O)Oc2ccc(N=Nc3ccc(-c4ccc(N=Nc5c(O)ccc6cc(S(=O)(=O)O)cc(S(=O)(=O)O)c56)c(C)c4)cc3C)cc2)cc1', 'inactive'),
  ('CCC1CCCCC1', '75.8 µM (active)'),
  ('C[C@H]1O[C@@H](O[C@H]2[C@@H](O)C[C@H](O[C@H]3[C@@H](O)C[C@H](O[C@H]4CC[C@@]5(C)[C@H](CC[C@@H]6[C@@H]5C[C@@H](O)[C@]5(C)[C@@H](C7=CC(=O)OC7)CC[C@]65O)C4)O[C@@H]3C)O[C@@H]2C)C[C@H](O)[C@@H]1O', '0.0803 µM (active)'),
  ('C=C(C#N)C(=O)OCC', '78.9 µM (active)'),
  ('CCCC(=O)c1ccccc1', 'inactive'),
  ('O=CN1CCOCC1', 'inactive'),
  ('Cc1ncc[nH]1', 'inactive'),
  ('OCCc1ccccc1', 'inactive'),
  ('CCCCCCCCCCCC(=O)OCC(O)CO (stereo unspecified)', '50 µM (active)'),
  ('C=C1CC[C@H](O)C/C1=C/C=C1\CCC[C@]2(C)[C@@H]([C@H](C)/C=C/[C@H](C)C(C)C)CC[C@@H]12', '79.1 µM (active)'),
  ('CC(=O)Nc1ccc(C(=O)CCl)cc1', '21.5 µM (active)'),
  ('COc1ccccc1N=Nc1c(S(=O)(=O)O)cc2cc(S(=O)(=O)O)cc(NC(C)=O)c2c1O', 'inactive'),
  ('CCCCCCC(=O)c1ccccc1', 'inactive'),
  ('CC(C)NCC(O)COc1ccc(CC(N)=O)cc1 (stereo unspecified)', 'inactive'),
  ('CCc1ccc(O)cc1', 'inactive'),
  ('CC=Cc1ccc(OCC)c(O)c1', 'inactive'),
  ('O=C(c1ccccc1)C(O)c1ccccc1 (stereo unspecified)', 'inactive'),
  ('Nc1ccc(N)c2c1C(=O)c1ccccc1C2=O', 'inactive');

---

assay: CEETOX_H295R_CORTISOL: CeeTox H295R High-throughput Steroidogenesis Assay for Cortisol (AID 2283438); settings: actives raise or lower the signal;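 further: cortisol secreted into medium quantified by LC-MS/MS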
Active and inactive are the calls of the source. Rule for the calls: active = hit-call score of the fitted dose curve at least 0.9, where 1 is the maximum; inactive = score below 0.9.
Possible outcomes: y for active, n for inactive

INSERT INTO measurements (given_smiles, answer_label) VALUES
  ('Nc1ccc(N)c2c1C(=O)c1ccccc1C2=O', 'n'),
  ('COc1ccc(N=Nc2cc(C)c(N=Nc3ccc(S(=O)(=O)O)cc3)cc2OC)cc1', 'n'),
  ('CC=Cc1ccc(OCC)c(O)c1', 'n'),
  ('CCc1cc(C(C)(C)C)c(O)c(C(C)(C)C)c1', 'n'),
  ('CCOC(=O)[C@@H](C)Oc1ccc(Oc2nc3ccc(Cl)cc3o2)cc1', 'n'),
  ('C=C1CC[C@H](O)C/C1=C/C=C1\CCC[C@]2(C)[C@@H]([C@H](C)/C=C/[C@H](C)C(C)C)CC[C@@H]12', 'y');

---

read-out: Monocyte Chemoattractant Protein-1 (MCP1), CCL2 (gene 6347); assay: BSK_LPS_MCP1: BioMAP Diversity Plus: LPS Assay for Monocyte Chemoattractant Protein-1 (MCP1) Biomarker Activity (AID 2283081); conditions: primary human HUVEC with PBMC; actives raise or lower the signal;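 on AC50: co-culture stimulated with LPS; secreted MCP-1 protein quantified by ELISA in culture supernatant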
Active and inactive are the calls of the source. Rule for the calls: active = hit-call score of the fitted dose curve at least 0.9, where 1 is the maximum; inactive = score below 0.9.
REPORTED_ENDPOINT: AC50

INSERT INTO assay_data (compound, reported_endpoint, result) VALUES
  ('C=C(C)C(=O)OCCOCCOCCOC(=O)C(=C)C', 'AC50', 'inactive'),
  ('C[C@@H]1CCN(C(=O)[C@H](CCCN=C(N)N)NS(=O)(=O)c2cccc3c2NC[C@H](C)C3)[C@@H](C(=O)O)C1', 'AC50', 'inactive'),
  ('CC=Cc1ccc(OCC)c(O)c1', 'AC50', 'inactive'),
  ('CCCCCCCCCCCCCCCC(=O)OC/C=C(C)/C=C/C=C(C)/C=C/C1=C(C)CCCC1(C)C', 'AC50', 'inactive'),
  ('CC(=O)Nc1ccc(C(=O)CCl)cc1', 'AC50', '5.89 µM (active)'),
  ('C=C(C)C(=O)OCC(CC)(COC(=O)C(=C)C)COC(=O)C(=C)C', 'AC50', 'inactive'),
  ('CCCCCCC(CO)CCCC (stereo unspecified)', 'AC50', 'inactive'),
  ('Clc1cc(Cl)c(-c2c(Cl)c(Cl)cc(Cl)c2Cl)cc1Cl', 'AC50', 'inactive'),
  ('CN(C)C(=O)Nc1ccc(Oc2ccc(Cl)cc2)cc1', 'AC50', 'inactive'),
  ('C=C(C)[C@H]1CC=C(C)C(=O)C1', 'AC50', 'inactive'),
  ('O=CN1CCOCC1', 'AC50', 'inactive'),
  ('C=CC(C)(O)CCC=C(C)C (stereo unspecified)', 'AC50', 'inactive'),
  ('C1=CC2C3C=CC(C3)C2C1 (stereo unspecified)', 'AC50', 'inactive'),
  ('COc1cc(Cl)c(OC)cc1N', 'AC50', 'inactive'),
  ('CSCCC=O', 'AC50', 'inactive'),
  ('CC1(C)CCC[C@]2(C)[C@H]3CCO[C@]3(C)CC[C@@H]12', 'AC50', 'inactive'),
  ('CC(CN=Cc1ccccc1O)N=Cc1ccccc1O (stereo unspecified)', 'AC50', 'inactive'),
  ('c1ccc2cc(Nc3ccc(Nc4ccc5ccccc5c4)cc3)ccc2c1', 'AC50', 'inactive'),
  ('CN(c1nccc(=O)[nH]1)C1CCN(c2nc3ccccc3n2Cc2ccc(F)cc2)CC1', 'AC50', 'inactive'),
  ('O=C1c2ccccc2C(=O)c2c(O)ccc(O)c21', 'AC50', 'inactive'),
  ('Oc1c(Cl)cc(Cl)c(Cl)c1Cc1c(O)c(Cl)cc(Cl)c1Cl', 'AC50', '32.5 µM (active)'),
  ('CCC(C)c1cc([N+](=O)[O-])cc([N+](=O)[O-])c1OC(=O)OC(C)C (stereo unspecified)', 'AC50', '14.3 µM (active)'),
  ('COc1ccc(CCN2CCC(Nc3nc4ccccc4n3Cc3ccc(F)cc3)CC2)cc1', 'AC50', 'inactive'),
  ('CS(=O)(=O)OCCCCOS(C)(=O)=O', 'AC50', 'inactive'),
  ('CCCCN(CCCC)C(=O)N(CCCC)CCCC', 'AC50', '20 µM (active)'),
  ('CN(C)C(=S)SC(=S)N(C)C', 'AC50', 'inactive');
